Assay: Circular dichroism spectroscopy of helical structure (benign buffer and 50% TFE)
Type: physicochemical
Settings: 25° C., benign buffer; relative to NAL in 50% TFE
Procedure: To determine the secondary structure of peptides in different environments, circular dichroism (CD) spectra of the peptide analogs were measured under physiologically related pH and ionic strength (100 mM KCl, 50 mM aq. PO4, pH 7 referred to as benign conditions) and also in 50% TFE to mimic the hydrophobic environment of the membrane. […] On the non-polar face, the native L-Val residue was critical in maintaining α-helical structure. […]
Square brackets hold non-standard residues; d marks the D form. Ends that are not written are not given here.
Please provide measured % helix Benign for the entries that follow.

In: I'd like to know its % helix Benign. The substance in question is Ac-KWKSFLKTFKSASKTVLHTALKAISS-NH2 [NSL]
Out: 4%

In: // query % helix Benign value for entry PKL: V681 analog with L-Lys at position 11 (polar face) (KWKSFLKTFKKAVKTVLHTALKAISS)
Out: 21%

In: # query: % helix Benign of entry Ac-KWKSFLKTFKSALKTVLHTALKAISS-NH2 [NLL]
Out: 71%

In: Which % helix Benign is reported for this substance? Ac-KWKSFLKTFKSAGKTVLHTALKAISS-NH2 [NG]
Out: 8%

In: Please look up its % helix Benign: PAL: V681 analog with L-Ala at position 11 (polar face) (KWKSFLKTFKAAVKTVLHTALKAISS)
Out: 47%

In: Fill in the blank: the reported % helix Benign of NLD: V681 analog with D-Leu at position 13 (non-polar face) (KWKSFLKTFKSA[dL]KTVLHTALKAISS-NH2; not fully specified) is ____.
Out: 25%

In: Any idea what its % helix Benign is? The substance is Ac-KWKSFLKTFKVAVKTVLHTALKAISS-NH2 [PVL]
Out: 26%

In: What value of % helix Benign has been reported for the following substance? PLL: V681 analog with L-Leu at position 11 (polar face) (KWKSFLKTFKLAVKTVLHTALKAISS)
Out: 37%

====

experiment: RP-HPLC temperature profiling (hydrophobicity and self-association/dimerization parameter PA); type: physicochemical; conditions: polar face substitutions; retention time difference relative to native peptide V681 (PSL) at 5° C.; relative hydrophobicity
For each record, write down the corresponding ΔtR (X-PSL) (min) 5° C..
Express it in min; write the number only.

In: Tell me the measured ΔtR (X-PSL) (min) 5° C. of PLL: V681 analog with L-Leu at position 11 (polar face) (KWKSFLKTFKLAVKTVLHTALKAISS) , please.
Out: 0.68

In: What does the data say about its ΔtR (X-PSL) (min) 5° C.? Entry: PAL: V681 analog with L-Ala at position 11 (polar face) (KWKSFLKTFKAAVKTVLHTALKAISS)
Out: 0.15

In: Recorded ΔtR (X-PSL) (min) 5° C. for PKL: V681 analog with L-Lys at position 11 (polar face) (KWKSFLKTFKKAVKTVLHTALKAISS) , please?
Out: -1.72

In: GET /values?readout=ΔtR (X-PSL) (min) 5° C.&item= Ac-KWKSFLKTFKVAVKTVLHTALKAISS-NH2 [PVL]
Out: -0.27

====

Exercise: for every item that follows, state its recorded [θ]222 50% TFE.
assay: Circular dichroism spectroscopy of helical structure (benign buffer and 50% TFE); assay type: physicochemical; details: 25° C., benign buffer diluted 1:1 (v/v) with TFE
Square brackets hold non-standard residues; d marks the D form. Ends that are not written are not given here.

In: What value of [θ]222 50% TFE has been recorded for this entry: PLL: V681 analog with L-Leu at position 11 (polar face) (KWKSFLKTFKLAVKTVLHTALKAISS)
Out: −28,550 deg · cm^2 · dmol^−1

In: I would be grateful if you could share the reported [θ]222 50% TFE for NLD: V681 analog with D-Leu at position 13 (non-polar face) (KWKSFLKTFKSA[dL]KTVLHTALKAISS-NH2; not fully specified) .
Out: −25,750 deg · cm^2 · dmol^−1

In: Can you look up the measured [θ]222 50% TFE of PAL: V681 analog with L-Ala at position 11 (polar face) (KWKSFLKTFKAAVKTVLHTALKAISS) for me?
Out: −27,600 deg · cm^2 · dmol^−1

In: Can you share its [θ]222 50% TFE? I mean this substance: PKL: V681 analog with L-Lys at position 11 (polar face) (KWKSFLKTFKKAVKTVLHTALKAISS)
Out: −27,350 deg · cm^2 · dmol^−1

In: // lookup [θ]222 50% TFE for Ac-KWKSFLKTFKSAGKTVLHTALKAISS-NH2 [NG]
Out: −24,350 deg · cm^2 · dmol^−1

In: Which measured [θ]222 50% TFE value corresponds to Ac-KWKSFLKTFKSALKTVLHTALKAISS-NH2 [NLL] ?
Out: −28,250 deg · cm^2 · dmol^−1

In: Any idea what its [θ]222 50% TFE is? The substance is Ac-KWKSFLKTFKSASKTVLHTALKAISS-NH2 [NSL]
Out: −27,550 deg · cm^2 · dmol^−1

In: Can you look up the measured [θ]222 50% TFE of Ac-KWKSFLKTFKVAVKTVLHTALKAISS-NH2 [PVL] for me?
Out: −23,050 deg · cm^2 · dmol^−1

====

Please go through the items and note down their tR (min) 5° C..
assay: RP-HPLC temperature profiling (hydrophobicity and self-association/dimerization parameter PA); type: physicochemical; conditions: RP-HPLC retention time at 5° C. during temperature profiling (measure of hydrophobicity)
Square brackets hold non-standard residues; d marks the D form. Ends that are not written are not given here.
Numbers only; they are read as min.

In: Fill in the blank: the reported tR (min) 5° C. of Ac-KWKSFLKTFKSAGKTVLHTALKAISS-NH2 [NG] is ____.
Out: 39.96

In: Dear colleague, I am looking for the recorded tR (min) 5° C. of the following substance: NLD: V681 analog with D-Leu at position 13 (non-polar face) (KWKSFLKTFKSA[dL]KTVLHTALKAISS-NH2; not fully specified)
Out: 45.10

In: Requested read-out: tR (min) 5° C.. Entry: PAL: V681 analog with L-Ala at position 11 (polar face) (KWKSFLKTFKAAVKTVLHTALKAISS)
Out: 48.25

In: Please look up its tR (min) 5° C.: Ac-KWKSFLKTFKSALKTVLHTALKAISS-NH2 [NLL]
Out: 48.16

In: Data request, read-out tR (min) 5° C., for Ac-KWKSFLKTFKVAVKTVLHTALKAISS-NH2 [PVL]
Out: 47.83

In: Given the substance Ac-ELEKGGLEGEKGGKELEK-amide (Ac-ELEKGGLEGEKGGKELEK-NH2) [peptide C, reference compound] , what is its reported tR (min) 5° C.?
Out: 22.74

In: What value of measured tR (min) 5° C. is listed for PLL: V681 analog with L-Leu at position 11 (polar face) (KWKSFLKTFKLAVKTVLHTALKAISS) ?
Out: 48.78

In: So what does the record say about tR (min) 5° C. for PKL: V681 analog with L-Lys at position 11 (polar face) (KWKSFLKTFKKAVKTVLHTALKAISS) ?
Out: 46.38

In: tR (min) 5° C. for Ac-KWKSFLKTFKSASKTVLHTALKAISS-NH2 [NSL] ?
Out: 40.72

====

Test: RP-HPLC temperature profiling (hydrophobicity and self-association/dimerization parameter PA)
Assay type: physicochemical
Settings: maximal RP-HPLC retention time during temperature profiling 5-80° C.
Protocol: The retention time data for the peptides is shown in Table 5 which records retention times at 5° C., the maximal retention times and retention times at 80° C. during the temperature profiling. […] The ability of the D-peptides to self-associate was determined by RP-HPLC temperature profiling. […]
Please respond with reported tR (min) Max for every item in the list.
Quick reminder: number only, in min, skip the unit.

In: Recorded tR (min) Max of Ac-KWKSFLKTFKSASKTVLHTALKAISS-NH2 [NSL] , please.
Out: 41.08

In: Give the measured tR (min) Max of Ac-KWKSFLKTFKVAVKTVLHTALKAISS-NH2 [PVL] .
Out: 49.93

In: Given Ac-KWKSFLKTFKSAGKTVLHTALKAISS-NH2 [NG] , state its recorded tR (min) Max.
Out: 40.22

In: Fill in the blank: the reported tR (min) Max of PKL: V681 analog with L-Lys at position 11 (polar face) (KWKSFLKTFKKAVKTVLHTALKAISS) is ____.
Out: 47.90
